system.under.test: NLRP3 (Homo sapiens, UniProt Q96P20)
Sequence (Q96P20 whole entry): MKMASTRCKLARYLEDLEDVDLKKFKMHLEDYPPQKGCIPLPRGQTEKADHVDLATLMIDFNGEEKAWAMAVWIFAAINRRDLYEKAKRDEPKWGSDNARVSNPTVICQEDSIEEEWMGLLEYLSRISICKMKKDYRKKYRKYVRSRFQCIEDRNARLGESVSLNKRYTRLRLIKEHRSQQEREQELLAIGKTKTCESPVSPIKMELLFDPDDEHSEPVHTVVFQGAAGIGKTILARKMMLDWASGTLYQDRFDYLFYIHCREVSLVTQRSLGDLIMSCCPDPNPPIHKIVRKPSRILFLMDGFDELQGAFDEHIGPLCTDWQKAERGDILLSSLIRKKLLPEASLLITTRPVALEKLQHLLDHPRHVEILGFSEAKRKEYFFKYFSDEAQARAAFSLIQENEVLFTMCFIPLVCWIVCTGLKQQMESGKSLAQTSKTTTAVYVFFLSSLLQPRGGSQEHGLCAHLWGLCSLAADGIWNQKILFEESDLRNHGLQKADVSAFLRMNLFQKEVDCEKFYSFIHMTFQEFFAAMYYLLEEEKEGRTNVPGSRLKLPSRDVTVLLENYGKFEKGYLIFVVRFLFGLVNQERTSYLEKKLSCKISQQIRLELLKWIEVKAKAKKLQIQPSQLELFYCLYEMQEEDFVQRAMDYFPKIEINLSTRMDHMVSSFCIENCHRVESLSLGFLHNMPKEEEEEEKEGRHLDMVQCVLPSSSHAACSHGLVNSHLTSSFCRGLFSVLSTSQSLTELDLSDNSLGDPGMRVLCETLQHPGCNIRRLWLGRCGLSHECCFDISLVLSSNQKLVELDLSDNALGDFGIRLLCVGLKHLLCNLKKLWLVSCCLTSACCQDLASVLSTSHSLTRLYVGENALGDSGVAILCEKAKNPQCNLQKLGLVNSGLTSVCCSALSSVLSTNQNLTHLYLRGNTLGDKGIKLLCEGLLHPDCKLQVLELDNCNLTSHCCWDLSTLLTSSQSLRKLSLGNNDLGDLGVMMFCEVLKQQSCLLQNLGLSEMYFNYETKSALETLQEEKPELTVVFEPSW
assay: THP-1 cells pyroptosis assay (LPS + nigericin, resazurin readout)
Assay type: cell-based
Design: Seed THP-1 cells (25,000cells/well) containing 1.0 μg/ml LPS; host or cells: THP-1 cells, LPS-primed, nigericin-stimulated
condition.notes: 1.0 μg/ml LPS, compound 3 hours, nigericin 5 μM 1 hr
endpoint.label: IC50

Solved cases below.
- CCN1CC[C@H]2CCN(c3nnc(-c4ccc(C#N)cc4O)c(C)n3)[C@H]2C1 (single isomer, unassigned): 0.0364 µM
- Cc1nc(N2CC[C@@H]3CCN(C)C[C@@H]32)nnc1-c1ccc2c(c1O)CCO2 (single isomer, unassigned): 0.0019 µM
- CCN1CCC2CCN(c3nnc(-c4ccc(C#N)cc4O)c(C)n3)C2C1 (single isomer, unassigned): > 1 µM

The measured IC50 associated with Cc1nc(N2CCC3CCN(C)CC32)nnc1-c1ccc(C#N)cc1O (single isomer, unassigned) reads > 1 µM

Sample CCN1CCC2CCN(c3nnc(-c4ccc5c(c4O)CCO5)c(C)n3)C2C1 (single isomer, unassigned) [Example 1B] ; IC50 observed: 0.0644 µM

Value of measured IC50 for the entry CCN1CCC2CCN(c3nnc(-c4ccc5c(c4O)CCO5)c(C)n3)C2C1 (single isomer, unassigned) [Example 1A] : 0.0018 µM

Recorded result, Cc1nc(N2CC[C@@H]3CCN(C)C[C@@H]32)nnc1-c1ccc(C#N)cc1O (single isomer, unassigned) , IC50: 0.0474 µM

# IC50 (compound: Cc1nc(N2CCC3CCN(C)CC32)nnc1-c1ccc2c(c1O)CCO2 (single isomer, unassigned) ) is 0.0522 µM
